Target: Glucose transporter (Leishmania mexicana) (UniProt O61059)
Assay: ST_JUDE_LEISH: Cytotoxicity at 2uM final concentration against transgenic Leishmania Mexicana promastigotes LmGT2 that are glucose transport deficient and complemented with the L. Mexicana glucose transporter 2. Activity is measured by DNA content using SYBR green in vitro
Format: functional
measured attribute: inhibition (%)

>>> number("O=C(NCCOc1ccccc1)[C@H](Cc1ccccc1)Nc1ccnc(NCC2CCCCC2)n1")
0.92
>>> number("COc1ccccc1CCCN1C(=O)C(c2ccccc2)(c2ccccc2)N=C1N")
1.36
>>> number("COc1ccc2nccc([C@@H](O)CN3CCC(NC(=O)C(c4cc5ccccc5s4)N4CCN(c5ccccc5OC)CC4)CC3)c2c1 (some centres undefined)")
0.56
>>> number("CC(=O)c1ccc2c(c1)CCN(CCC1CCC(NC(=O)c3cc4ccccc4[nH]3)CC1)CC2 (centres undefined)")
3.71
>>> number("COc1ccc(C(=O)Cn2nc(-c3ccc(Cl)cc3)ccc2=O)c(OC)c1")
0.37
>>> number("CCC(NCc1ccc(-c2cncc(C(=O)NCC(C)C)c2)cc1)c1ccccc1 (centres undefined)")
8.76
>>> number("O=C(NCC1Cc2cc(Oc3ccccc3)ccc2O1)c1ccc([N+](=O)[O-])o1 (centres undefined)")
3.24
>>> number("O=C(Nc1ccccc1F)NC1CCN(c2ccnc(Nc3ccc(F)cc3)n2)C1 (centres undefined)")
0.81
>>> number("CN(c1ccc2c(c1)nc(NCc1ccccc1)n2C)c1ccnc(Nc2ccc(CS(C)(=O)=O)cc2)n1")
3.22
>>> number("NC1=NC(c2ccccc2)(c2ccccc2)C(=O)N1CCCCc1ccccc1")
-1.44
>>> number("CN1CCCC(CN2CCN(Cc3ccc(-c4ccc(-c5nc6cc(F)ccc6[nH]5)s4)cc3)CC2)C1 (centres undefined)")
4.47
>>> number("Cn1nccc1C(=O)NCCNCc1cccc(-c2csc(-c3nc4ccccc4[nH]3)c2)c1")
7.22
>>> number("CN1CCCC(CN2CCN(Cc3cccc(-c4ccc(-c5nc6ccccc6[nH]5)cc4)c3)CC2)C1 (centres undefined)")
6.63
>>> number("CC[C@H]1CN(CCCC(=O)c2ccccc2)CC[C@H]1CCCc1ccnc2ccc(OC(=O)c3ccccc3)cc12")
2.72
>>> number("O=C(NCCCc1ccccc1)c1csc(C2CCCN(C(=O)c3ccc(O)c(-c4ccccc4)c3)C2)n1 (centres undefined)")
-4.23
>>> number("Cc1cc(CN2CCC(Nc3ncc(-c4ccsc4)c4nc(C(F)(F)F)ccc34)CC2)no1")
5.5
>>> number("O=C(/C=N/O)Nc1ccccc1[N+](=O)[O-]")
0.39
>>> number("CC(=O)Nc1ccc(Cl)c(Cl)c1")
-0.72
>>> number("COc1ccc2c(=NN=Cc3cccc(C)n3)cc(-c3ccccc3)[nH]c2c1")
4.08
>>> number("COc1cc(Cc2cnc(N)nc2N)cc(OCCCOc2ccccc2)c1OC")
4.99
>>> number("COc1ccc2ncc(F)c([C@@H](O)CN3CCC(NCc4ccc5c(c4)NCCS5)CC3)c2n1")
-5.06
>>> number("CC(C)NCc1cccc(-c2cccc(NC(=O)c3cccc(C#N)c3)c2)c1")
5.23
>>> number("COc1ccc(Nc2nccc(N3CCC(NC(=O)c4cc5ccccc5s4)C3)n2)cc1 (centres undefined)")
-1.61
>>> number("CCOC(=O)c1nc(-c2ccccc2)[nH]c1NC(=S)NC1CCCCC1")
-6.59
>>> number("CC1CN(Cc2ccc(-c3ccc(-c4nc5cc(F)ccc5[nH]4)cc3)cc2)CC(C)O1 (centres undefined)")
3.77
>>> number("Cc1cccc(S(=O)(=O)Nc2cccc(CCN3CCC(N4CCCCC4)CC3)c2)c1")
0.97
>>> number("O=C(C=Cc1cccs1)Nc1ccc(-c2nc3ccccc3[nH]2)cc1")
3.04
>>> number("CCCCNC(=N)c1ccc(OCCCCCOc2ccc(C(=N)NCCCC)cc2)cc1")
-0.11
>>> number("c1ccc(-c2nc3ccccc3[nH]2)c(Nc2ccnc3cc(-c4nccs4)ccc23)c1")
0.58
>>> number("O=C(NCCCCN1CCC(c2ccc3c(c2OCCO)CCCC3)CC1)c1ccc2oc(-c3ccc(C(F)(F)F)cc3)cc2c1")
2.18
>>> number("CCOc1cc(C)ccc1C1CCN(CCCCNC(=O)c2ccc(NC(=O)c3cc(Cl)cc(Cl)c3)cc2)CC1")
1.02
>>> number("O=C(Nc1cccc(CN2CCCN(Cc3cccc(Cl)c3)CC2)c1)c1ccc(Cl)c(Cl)c1")
4.28
>>> number("O=C1Nc2cccc3c2C1(CCCCN1CCC(c2c(-c4ccccc4)[nH]c4ccccc24)CC1)CCC3 (centres undefined)")
-0.14
>>> number("Cc1cccc(Nc2nc(C)cc(N3CCCN(CC4CCCCC4)CC3)n2)c1")
-0.15
>>> number("O=C1CCCN1CCCNCc1ccc(-c2cccc(-c3nc4cc(F)ccc4[nH]3)c2)cc1")
-2.7
>>> number("COc1cc(O)c2c(=O)c(OC)c(-c3cccc(Cl)c3OCC(=O)O)oc2c1OC")
-0.46
>>> number("Clc1cccc(C=NNc2ccnc3cc(Cl)ccc23)c1")
-3.26
>>> number("CCOc1cccc(C(=O)Nc2cccc(CN3CCCN(Cc4ccc(O)cc4)CC3)c2)c1")
5.38
>>> number("O=[N+]([O-])c1cccc(CNC2CCN(Cc3ccc(Cl)c(Cl)c3)CC2)c1")
7.35

###

Catalogue of inhibition values
Molecular target: Glucose transporter (Leishmania mexicana) (UniProt O61059)
Assay: ST_JUDE_LEISH: Cytotoxicity at 2uM final concentration against transgenic Leishmania Mexicana promastigotes LmGT2 that are glucose transport deficient and complemented with the L. Mexicana glucose transporter 2. Activity is measured by DNA content using SYBR green in vitro
Assay type: functional
measured attribute: inhibition (%)

>>> number("Cc1ccc(Nc2ccnc(Nc3ccc(F)c(Cl)c3)n2)cc1O")
2.04
>>> number("COCCn1ccc2c3c(N)nc(N)nc3ccc21")
2.26
>>> number("O=C(Nc1cccc(-c2ccc(-c3nc4cc(C(F)(F)F)ccc4[nH]3)s2)c1)c1ccncc1")
7.24
>>> number("COc1ccc(CCNc2nc(N)c3cc(OC)c(OC)cc3n2)cc1")
1.41
>>> number("O=C(C=Cc1ccc(C(=O)Nc2ccc(C3=NCCN3)cc2)cc1)Nc1ccc(C2=NCCN2)cc1")
5.13
>>> number("CC1(C)NC(N)=NC(=N)N1OCCCOc1ccccc1Cl")
12
>>> number("CN1CC=C(c2csc3ccc(NC(=O)Nc4ccc(-c5ccncc5)c5ccccc45)cc23)CC1")
-1.21
>>> number("COc1cc(Cc2cnc(N)nc2N)ccc1OCc1ccc(-c2csnn2)cc1")
11.7
>>> number("COC(=O)c1cccc(CNCc2cccc(-c3ccc(-c4nc5cccc(C)c5[nH]4)cc3)c2)c1")
8.52
>>> number("O=C(Nc1ccc(Cl)cc1)Nc1cccc(-c2cc(CNCCc3ccccc3)oc2-c2ccncc2)c1")
3.77

###

Collected inhibition values appear next to each entry.
Target: Glucose transporter (Leishmania mexicana) (UniProt O61059)
Assay: ST_JUDE_LEISH: Cytotoxicity at 2uM final concentration against transgenic Leishmania Mexicana promastigotes LmGT2 that are glucose transport deficient and complemented with the L. Mexicana glucose transporter 2. Activity is measured by DNA content using SYBR green in vitro
Assay type: functional
measured attribute: inhibition (%)

>>> number("COc1ccc(OCCON)cc1")
8.87
>>> number("COc1ccccc1CCN(C)CCN1CCC(NC(=O)c2ccc(-c3ccc(C(F)(F)F)cc3)cc2)CC1")
1.05
>>> number("Nc1cccc(CNCc2ccc(-c3cccc(-c4nc5cc(F)ccc5[nH]4)c3)cc2)c1")
-1.93
>>> number("O=C(Nc1cncc(NC(=O)c2ccc(Cl)c(Cl)c2)c1)c1ccc(Cl)c(Cl)c1")
-0.68
>>> number("COc1ccc(NC(=O)c2c(NC(=O)c3cccs3)sc3c2CCCC3)cc1")
5.21

###

Target: Hexose transporter 1 (Plasmodium falciparum)
Test: ST_JUDE_LEISH: Cytotoxicity at 2uM final concentration against transgenic Leishmania Mexicana promastigotes LmPfHT that are glucose transport deficient and complemented with the Plasmodium falciparum hexose transporter. Activity is measured by DNA content using SYBR green in vitro
Type: functional
measured attribute: inhibition (%)

>>> number("N#Cc1ccc(-n2cc(C(=O)Nc3ccc4c(c3)CCN(C3CCC3)CC4)c(C(F)(F)F)n2)cc1")
6.79
>>> number("CC(=O)c1ccc(NC(=O)NNC(=O)c2ccc(CCN3CCC(c4nc(COCC(F)(F)F)c(-c5ccc(F)cc5)o4)CC3)cc2)cc1")
0.69
>>> number("Cc1cc(NC(=O)Nc2ccc(C(C)(C)C)cc2)c2ccccc2n1")
3.8
>>> number("COc1ccc(NC(=O)[C@H](Cc2ccccc2)Nc2nc(NCCN3CCCC3)ncc2C)cc1")
2.57
>>> number("NC(=O)c1ccc(C(=O)Nc2cccc(-c3cccc(-c4nc5cc(C(F)(F)F)ccc5[nH]4)c3)c2)cc1")
5.6
>>> number("COc1cc(-c2nc(-c3ccccc3)c(-c3ccccc3)[nH]2)ccc1OCCN(C)C")
1.4
>>> number("COc1ccc(C=NN=c2cc(C)[nH]c3c(C)cccc23)c2ccccc12")
1.31
>>> number("Oc1ccc(-c2ccccc2)cc1CN1CCCCC1")
5.51
>>> number("CCOC(=O)/C(=N\\OC(C(=O)OC(C)(C)C)c1ccccc1)c1csc(NC(c2ccccc2)(c2ccccc2)c2ccccc2)n1 (centres undefined)")
1.43
